# System: UACC-62 melanoma
# Procedure Text: NCI-60 one-dose screen, 48 h
# Condition Details: 10 µM unless noted
# Protocol: Growth inhibition of the UACC-62 human tumor cell line is measured as a screen for anti-cancer activity. Cells are grown in 96 well plates and exposed to the test compound for 48 hours. Compounds are tested at a single concentration, which is 10^-5 M for most compounds. The reported endpoint is percent growth (GI% or GIPRCNT), where numbers from 0 - 100% represent growth inhibition, and numbers from -100% - 0 represent cell death. For example, a value of 40 represents 60% growth inhibition. […]
This is part of a sample that, as a whole, favours compounds with a hit. Of some 83,000 tested, about 20% had one in any assay. Active and inactive are the calls of the source. The calls were made as follows: active = growth percent below 10; inactive = the rest.
Possible outcomes: active, inactive

1) COC1=CC(c2ccc[nH]2)=N/C1=C\c1[nH]c(C)c(C(=O)CCCCC(=O)Nc2ccccc2)c1C
inactive
2) COc1ccc(-c2cn[nH]c2-c2cc(OC)c3c(c2)OCO3)cc1
inactive
3) O=S(=O)(NCCCNc1cc(-c2cn(-c3ccccc3)nc2-c2cccc(O)c2)ccn1)c1ccc(Br)cc1
active
4) O=C(O)c1ccc(-n2cc(CNc3ccc(C(F)(F)F)cc3)c(-c3ccccc3)n2)cc1
inactive
5) c1ccc([P+](CCC[P+](c2ccccc2)(c2ccccc2)c2ccccc2)(c2ccccc2)c2ccccc2)cc1
inactive
6) CCn1cc(C(=O)O)c(=O)c2cc(F)c(N3CCN(S(=O)(=O)c4ccc(Cl)cc4Cl)CC3)cc21
inactive
7) COc1cc(C(=O)CCCl)ccc1O
inactive
8) CC(=O)Nc1ccc2c(c1)/C(=C\C=C/c1ccc([N+](C)(C)C)cc1)c1ccccc1-2
inactive
9) C=CC(=O)N[C@H](/C=C/C(=O)OCC)Cc1ccc(-c2cc(Cl)cc(Cl)c2)cc1
inactive
10) Cn1cc(C=O)c2ccccc21
inactive
11) CCC1CCc2nc3sc(C(=O)Nc4ccccc4F)c(N)c3cc2C1 (stereo not given)
inactive
12) C#CCC1(c2ccc(F)c(F)c2)NS(=O)(=O)c2ccccc21 (stereo not given)
inactive
13) COc1cc(C(=O)N2CCN(C(=O)c3ccco3)CC2)c(N)cc1OCc1ccccc1
inactive
14) Cc1cccc(-n2c(C)nc3ccc(NC(=O)NCCCl)cc3c2=O)c1
inactive
15) Cc1nc(Nc2cccnc2)sc1C(=O)/C=C/c1ccc(Cl)cc1
inactive

====

# Test system: 786-0 renal
# Procedure Text: NCI-60 one-dose screen, 48 h (100 = growth as untreated, 0 = no growth, -100 = all killed)
# Condition Details: 10 µM unless noted
The panel holds about 83,000 compounds, 20% with a hit somewhere; the sample as a whole holds those more often. Activity calls are given as the source filed them. The calls were made as follows: active = growth percent below 10; inactive = the rest.
Measured Quantity: growth

1) O=C(Nc1ccccc1)OCC1OCOC(COC(=O)Nc2ccccc2)C1OC(=O)Nc1ccccc1 (centres undefined)
49.3% (inactive)
2) Clc1nc(Cl)c2ncn(C/C=C/Cn3cnc4c(Cl)nc(Cl)nc43)c2n1
93.2% (inactive)
3) CC(CCc1ccccc1)NC(=O)c1n[nH]c(=O)c2ccccc12 (centres undefined)
107% (inactive)
4) COc1ccc(OC)c(/C=C2\Oc3cc(OCCN4CCCC4)ccc3C2=O)c1
93.9% (inactive)
5) Cc1cccc(NC(=O)c2sc3nc4c(cc3c2N)CCC4)c1C
42.7% (inactive)
6) COc1cccc2cc(-c3cc4ccccc4[nH]3)/c(=N/C(=S)Nc3ccccc3)oc12
59.4% (inactive)
7) Cc1cc2c(C(C)C)c(O)c(O)c(C=NCCCCC(=O)O)c2c(O)c1-c1c(C)cc2c(C(C)C)c(O)c(O)c(C=NCCCCC(=O)O)c2c1O
49.1% (inactive)
8) Nc1cccc2c1CN(C1CCC(=O)NC1=O)C2=O (centres undefined)
107% (inactive)
9) COc1ccc(/C(=N/O)c2cc(OC)c(OC)c(OC)c2)c(OC)c1N
30.6% (inactive)
10) CCN1C(=O)N(CC)C2C1NN=c1s/c(=C\c3ccccn3)c(=O)n12 (centres undefined)
22.3% (inactive)
11) COc1cccc(NC(=O)Cn2cc3c(=O)oc4ccccc4c3n2)c1
98.4% (inactive)
12) CN(C)c1ncc(-c2ccc(C(F)(F)F)cc2)c(NC2CCCCCC2)n1
67.2% (inactive)
13) O=C(COc1ccccc1)N1N=C(c2ccc(Cl)cc2)CC1c1c[nH]c2ccccc12 (centres undefined)
71% (inactive)
14) CN(C)c1ccc(C2CC(c3ccccc3)=NN2/C=C2\SC(=O)NC2=O)cc1 (centres undefined)
90.5% (inactive)
